test: Distribution in brain: plasma and intracerebral concentrations after intravenous injection; format: in vivo; conditions: both sexes, rat, brain; rats, 4 mg/kg iv, 60 min; read-out: Mean Intracerebral Concentration
Classify by measured concentration at 60 min: Fulfilled if it is equal to or exceeds 1000 ng/g, Not fulfilled if it is smaller.

> print(dat)
                                   compound     grouplabel
1  COc1cc(CCC(=O)O[C@H]2C[C@H]3CC[C@]2(C)C3(C)C)c(Br)cc1O      Fulfilled
2  COc1cc(CCC(=O)O[C@H]2C[C@H]3CC[C@]2(C)C3(C)C)cc(F)c1O      Fulfilled
3  CC1(C)[C@@H]2CC[C@@]1(C)[C@@H](OC(=O)[C@H](O)Cc1ccc(O)c(O)c1)C2 [D-tanshinol borneol ester, reference compound]  Not fulfilled
4  COc1cc(/C=C/C(=O)O[C@H]2C[C@H]3CC[C@]2(C)C3(C)C)ccc1O [D-bornyl ferulate, reference compound]  Not fulfilled

Request: Textbook exercise: given the entry "COc1cc(CCC(=O)O[C@H]2C[C@H]3CC[C@]2(C)C3(C)C)cc(OC)c1O" , state whether its concentration at 60 min is greater than or equal to 1000 ng/g.
Response: Fulfilled

Request: Record: "CC1(C)[C@@H]2CC[C@@]1(C)[C@@H](OC(=O)CCc1ccc(O)c(OC(F)(F)F)c1)C2"
Response: Not fulfilled

Request: Record: "COc1cc(CCC(=O)O[C@H]2C[C@H]3CC[C@]2(C)C3(C)C)cc(O)c1O"
Response: Fulfilled

###

test: Distribution in brain: plasma and intracerebral concentrations after intravenous injection; type: in vivo; conditions: both sexes, rat, brain/plasma; rats, 4 mg/kg iv, 10 min; read-out: Brain/Blood Concentration Ratio
Listing of entries alongside the reported Kp at 10 min.
Reply briefly: the number, and no unit.

Request: What value of Kp at 10 min has been reported for the following compound? COc1cc(/C=C/C(=O)O[C@H]2C[C@H]3CC[C@]2(C)C3(C)C)ccc1O [D-bornyl ferulate, reference compound]
Response: 0.52

Request: Record: "CC1(C)[C@@H]2CC[C@@]1(C)[C@@H](OC(=O)CCc1ccc(O)c(OC(F)(F)F)c1)C2"
Response: 3.4

Request: Record: "COc1cc(CCC(=O)O[C@H]2C[C@H]3CC[C@]2(C)C3(C)C)c(Br)cc1O"
Response: 1.6

###

experiment: Distribution in brain: plasma and intracerebral concentrations after intravenous injection; format: in vivo; settings: both sexes, rat, brain/plasma; rats, 4 mg/kg iv, 60 min; read-out: Brain/Blood Concentration Ratio
reportedEndpoint: Kp at 60 min
Reply briefly: the number, and no unit.

Some entries whose results are on file:
> print(dat)
                                   molecule  observedresult
1  COc1cc(CCC(=O)O[C@H]2C[C@H]3CC[C@]2(C)C3(C)C)c(Br)cc1O [Compound D]             4.6
2  COc1cc(CCC(=O)O[C@H]2C[C@H]3CC[C@]2(C)C3(C)C)cc(OC)c1O [Compound C]              11
3  COc1cc(CCC(=O)O[C@H]2C[C@H]3CC[C@]2(C)C3(C)C)cc(O)c1O [Compound B]             4.5
4  COc1cc(/C=C/C(=O)O[C@H]2C[C@H]3CC[C@]2(C)C3(C)C)ccc1O [D-bornyl ferulate, reference compound]               5
5  COc1cc(CCC(=O)O[C@H]2C[C@H]3CC[C@]2(C)C3(C)C)cc(F)c1O [Compound A]             5.7
6  CC1(C)[C@@H]2CC[C@@]1(C)[C@@H](OC(=O)[C@H](O)Cc1ccc(O)c(O)c1)C2 [D-tanshinol borneol ester, reference compound]             2.6

Request: What value of Kp at 60 min has been reported for the following molecule? CC1(C)[C@@H]2CC[C@@]1(C)[C@@H](OC(=O)CCc1ccc(O)c(OC(F)(F)F)c1)C2 [Compound E]
Response: 3.5

meta.source: patent US11767286B2
